Catalogue of compounds with associated residual activity
MEASURED_ON: IKBKE (human) (UniProt Q14164)
Sequence (Q14164 whole entry, looked up): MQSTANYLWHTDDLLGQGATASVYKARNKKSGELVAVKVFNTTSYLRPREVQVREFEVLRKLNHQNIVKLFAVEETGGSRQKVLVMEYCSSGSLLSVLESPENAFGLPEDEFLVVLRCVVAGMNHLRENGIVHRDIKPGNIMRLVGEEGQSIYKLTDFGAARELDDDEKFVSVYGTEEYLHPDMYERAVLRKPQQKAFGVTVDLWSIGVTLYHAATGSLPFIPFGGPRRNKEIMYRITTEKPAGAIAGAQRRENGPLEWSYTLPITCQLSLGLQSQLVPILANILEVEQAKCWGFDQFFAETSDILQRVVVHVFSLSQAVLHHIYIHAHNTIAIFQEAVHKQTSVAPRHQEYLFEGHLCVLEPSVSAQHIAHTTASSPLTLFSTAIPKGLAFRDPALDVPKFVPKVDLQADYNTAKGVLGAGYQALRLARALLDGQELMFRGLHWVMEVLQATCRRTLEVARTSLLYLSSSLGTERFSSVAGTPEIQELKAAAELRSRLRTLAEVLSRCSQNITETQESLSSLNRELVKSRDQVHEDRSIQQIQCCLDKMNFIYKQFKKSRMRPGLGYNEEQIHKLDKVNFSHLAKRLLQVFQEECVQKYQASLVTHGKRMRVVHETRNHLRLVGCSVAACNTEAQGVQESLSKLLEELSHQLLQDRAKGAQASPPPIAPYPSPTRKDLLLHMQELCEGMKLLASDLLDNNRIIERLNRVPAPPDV
EXPERIMENT_SUMMARY: radiometric filter-binding kinase assay
EXPERIMENTAL_SETUP: compound 10.0 µM

COMPOUND: N#Cc1c(O)c2c(-c3ccc(-c4ccccc4O)cc3)csc2[nH]c1=O
UNIT: %
residual activity: 69
//
COMPOUND: O=C(Nc1cccnc1)c1cc(-c2ccnc(F)c2)ccc1OCc1ccccc1
UNIT: %
residual activity: 102
//
COMPOUND: O=C1NC(=S)N[C@@H]1Cc1c[nH]c2ccccc12
UNIT: %
residual activity: 93
//
COMPOUND: NC(=O)c1cc(-c2ccnc(NC3CCCCC3)c2)nc(N2CCNCC2)c1
UNIT: %
residual activity: 48
//
COMPOUND: O=C(N[C@@H](COc1ccc2[nH]c(=O)[nH]c2c1)c1ccccc1)c1cccn(Cc2ccc(F)c(F)c2)c1=O
UNIT: %
residual activity: 95
//
COMPOUND: CC(C)C[C@H](NC(=O)CNC(=O)c1cc(Cl)ccc1Cl)B1OC(=O)CC(CC(=O)O)(C(=O)O)O1 (stereo not given in full)
UNIT: %
residual activity: 91
//
COMPOUND: C[C@H]1CCCC(=O)CCC/C=C/c2cc(O)cc(O)c2C(=O)O1
UNIT: %
residual activity: 82
//
COMPOUND: C=CC(=O)N1CCC[C@@H](n2nc(-c3ccc(Oc4ccccc4)cc3)c3c(N)ncnc32)C1
UNIT: %
residual activity: 66
//
COMPOUND: O=C(NOC[C@H](O)CO)c1ccc(F)c(F)c1Nc1ccc(I)cc1Cl
UNIT: %
residual activity: 111
//
COMPOUND: Cc1ccc(-c2ccc3c(ccc4sc5c(c43)NC[C@@H](C)NC5=O)n2)cn1
UNIT: %
residual activity: 44
//
COMPOUND: COc1cc(C(=O)N2CCOCC2)c(F)cc1Nc1ncc(C(F)(F)F)c(NC2CC2)n1
UNIT: %
residual activity: 55
//
COMPOUND: NC1(c2ccc(-c3nc4ccn5c(=O)[nH]nc5c4cc3-c3ccccc3)cc2)CCC1
UNIT: %
residual activity: 91
//
COMPOUND: Cc1cc(SCc2sc(-c3ccc(C(F)(F)F)cc3)nc2C)ccc1OCC(=O)O
UNIT: %
residual activity: 92
//
COMPOUND: NS(=O)(=O)OC[C@@H]1C[C@@H](n2ccc3c(N[C@H]4CCc5ccccc54)ncnc32)C[C@@H]1O
UNIT: %
residual activity: 78
//
COMPOUND: CN1C(=O)[C@@H](Cc2c[nH]c3ccccc23)NC1=S
UNIT: %
residual activity: 86

###

Catalogue of compounds with associated residual activity
MEASURED_ON: CLK2 (human)
EXPERIMENT_SUMMARY: radiometric filter-binding kinase assay
EXPERIMENTAL_SETUP: compound 0.01 µM
OUTCOME_MEASURE: residual activity (%)

COMPOUND: COc1ccc(N(C(=O)Nc2c(C)cccc2C)c2cc(Nc3ccc(N4CCN(C)CC4)cc3)ncn2)c(OC)c1
MEASURED_ON: CLK2 (human)
UNIT: %
OBSERVED_MEASUREMENT: 97
//
COMPOUND: CNC(=O)C1[C@H]2O[C@@](C)([C@@H]1N)n1c3ccccc3c3c4c(c5c6ccccc6n2c5c31)C(=O)NC4 (some centres undefined)
MEASURED_ON: CLK2 (human)
UNIT: %
OBSERVED_MEASUREMENT: 9
//
COMPOUND: O=C(Nc1nc2cc(C(F)(F)F)cc(NC3CC3)n2n1)c1cccnc1
MEASURED_ON: CLK2 (human)
UNIT: %
OBSERVED_MEASUREMENT: 101
//
COMPOUND: COc1cc(O)c2c(c1)[C@H]1OC1C[C@H](O)[C@H](O)C(=O)/C=C\C[C@H](C)OC2=O (some centres undefined)
MEASURED_ON: CLK2 (human)
UNIT: %
OBSERVED_MEASUREMENT: 94

###

MEASURED_ON: INSRR (human) (UniProt P14616)
Sequence (P14616 whole entry, looked up): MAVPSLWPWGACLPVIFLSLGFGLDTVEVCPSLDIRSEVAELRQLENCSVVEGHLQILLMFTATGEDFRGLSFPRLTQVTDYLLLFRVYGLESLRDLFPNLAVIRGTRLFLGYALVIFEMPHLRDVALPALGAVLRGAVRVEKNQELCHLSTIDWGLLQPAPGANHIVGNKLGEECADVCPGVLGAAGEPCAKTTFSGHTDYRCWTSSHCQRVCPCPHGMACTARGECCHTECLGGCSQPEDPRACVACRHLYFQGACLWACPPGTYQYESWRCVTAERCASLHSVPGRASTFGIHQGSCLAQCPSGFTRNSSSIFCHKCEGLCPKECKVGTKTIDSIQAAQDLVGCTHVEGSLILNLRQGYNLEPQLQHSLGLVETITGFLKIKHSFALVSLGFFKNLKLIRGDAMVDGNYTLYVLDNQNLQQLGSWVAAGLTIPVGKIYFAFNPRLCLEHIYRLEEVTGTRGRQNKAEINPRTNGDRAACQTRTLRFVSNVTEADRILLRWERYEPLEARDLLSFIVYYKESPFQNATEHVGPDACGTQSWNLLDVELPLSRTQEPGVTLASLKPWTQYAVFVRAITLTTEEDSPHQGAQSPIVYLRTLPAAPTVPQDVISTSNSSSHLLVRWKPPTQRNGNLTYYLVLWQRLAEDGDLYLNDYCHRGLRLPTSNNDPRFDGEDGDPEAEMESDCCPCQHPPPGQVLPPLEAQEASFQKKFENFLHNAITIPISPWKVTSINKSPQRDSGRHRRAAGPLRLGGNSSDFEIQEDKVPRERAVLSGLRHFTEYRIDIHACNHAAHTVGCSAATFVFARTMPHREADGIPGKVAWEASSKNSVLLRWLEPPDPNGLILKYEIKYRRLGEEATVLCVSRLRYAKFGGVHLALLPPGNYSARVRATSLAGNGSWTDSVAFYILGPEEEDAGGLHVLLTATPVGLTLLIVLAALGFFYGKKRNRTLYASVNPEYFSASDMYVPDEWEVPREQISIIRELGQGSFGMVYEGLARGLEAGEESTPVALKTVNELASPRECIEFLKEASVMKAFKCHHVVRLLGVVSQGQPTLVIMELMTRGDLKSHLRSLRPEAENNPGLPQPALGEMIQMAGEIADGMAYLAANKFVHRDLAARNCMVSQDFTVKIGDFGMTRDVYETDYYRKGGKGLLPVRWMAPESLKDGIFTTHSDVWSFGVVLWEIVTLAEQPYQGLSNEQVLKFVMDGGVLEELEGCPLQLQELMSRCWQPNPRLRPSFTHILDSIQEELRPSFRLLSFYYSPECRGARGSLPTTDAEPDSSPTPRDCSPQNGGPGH
EXPERIMENT_SUMMARY: radiometric filter-binding kinase assay
EXPERIMENTAL_SETUP: compound 10.0 µM
Would you mind sorting the entries by residual activity according to these classes? bucket 1: < 50%; bucket 2: ≥ 50% and < 80%; bucket 3: ≥ 80%

COMPOUND: NCC(=O)Nc1ccc(-n2nc(C(F)(F)F)cc2-c2ccc3c(ccc4ccccc43)c2)cc1
GROUP_LABEL: bucket 2
//
COMPOUND: NC1(c2ccc(-c3nc4ccn5c(=O)[nH]nc5c4cc3-c3ccccc3)cc2)CCC1
GROUP_LABEL: bucket 2
//
COMPOUND: Cc1ccc(Sc2cnc(Nc3cccc(Br)n3)s2)cc1C(=O)N1CCN(C(=O)CN)CC1
GROUP_LABEL: bucket 2
//
COMPOUND: Cc1nc(-c2ccc(OCC(C)C)c(C#N)c2)sc1C(=O)O
GROUP_LABEL: bucket 2
//
COMPOUND: Cc1cc(SCc2sc(-c3ccc(C(F)(F)F)cc3)nc2C)ccc1OCC(=O)O
GROUP_LABEL: bucket 3
//
COMPOUND: O=c1c(O)c(-c2ccc(O)c(O)c2)oc2cc(O)c(O)c(O)c12
GROUP_LABEL: bucket 1
//
COMPOUND: O=S(=O)(c1ccc(F)c2nonc12)N1CCN(c2ncc(C(F)(F)F)cc2Cl)CC1
GROUP_LABEL: bucket 3
//
COMPOUND: Oc1ccc2ccccc2c1SSc1c(O)ccc2ccccc12
GROUP_LABEL: bucket 3
//
COMPOUND: CC1=C(CO)C(=O)O[C@@H]([C@@H](C)[C@H]2CC[C@H]3[C@@H]4C[C@H]5O[C@]56[C@@H](O)C=CC(=O)[C@]6(C)C4CC[C@]23C)C1 (stereo partly drawn)
GROUP_LABEL: bucket 2
//
COMPOUND: O=C(O)c1ccc(-c2c[nH]c3ncc(-c4ccccc4)cc23)cc1C1CCCC1
GROUP_LABEL: bucket 1
//
COMPOUND: CCCC(CCC)C(=O)O
GROUP_LABEL: bucket 3
//
COMPOUND: NC(=O)c1cc2c(-c3cccc(-c4ccccc4)c3)cnc(N)c2s1
GROUP_LABEL: bucket 1
//
COMPOUND: CCOC(=O)c1ccc(N2NC(=O)/C(=C/c3ccc([N+](=O)[O-])o3)C2=O)cc1
GROUP_LABEL: bucket 3
//
COMPOUND: NC(=O)c1ccc(-c2ccc(Oc3cncc4sc(-c5nn[nH]n5)cc34)cc2)cc1
GROUP_LABEL: bucket 1
//
COMPOUND: CCCCCc1ccc(/C=C/[C@H](O)[C@@H](CO)NC)cc1
GROUP_LABEL: bucket 3
//
COMPOUND: FC(F)(F)c1ccc(-c2ccc(Oc3cncc4sc(-c5nn[nH]n5)cc34)cc2)cc1
GROUP_LABEL: bucket 1
//
COMPOUND: COc1cc(C(=O)N2CCOCC2)c(F)cc1Nc1ncc(C(F)(F)F)c(NC2CC2)n1
GROUP_LABEL: bucket 2

###

MEASURED_ON: MAP2K6 (human)
EXPERIMENT_SUMMARY: radiometric filter-binding kinase assay
EXPERIMENTAL_SETUP: compound 1.0 µM

COMPOUND: O=C(NOCC(O)CO)c1ccc(F)c(F)c1Nc1ccc(I)cc1Cl (stereo not given)
UNIT: %
residual activity: 90
//
COMPOUND: COc1ccc(-n2ncc3cnc(Nc4cc(OC)c(OC)c(OCCCN5CCN(C)CC5)c4)nc32)cc1
UNIT: %
residual activity: 75
//
COMPOUND: NC(=O)c1ccc(-c2ccc(Oc3cncc4sc(-c5nn[nH]n5)cc34)cc2)cc1
UNIT: %
residual activity: 104
//
COMPOUND: Cc1ccc(=O)n(-c2ccccc2)c1
UNIT: %
residual activity: 106
//
COMPOUND: c1ccc2c(-c3cnn4cc(-c5ccc(N6CCNCC6)cc5)cnc34)ccnc2c1
UNIT: %
residual activity: 89
//
COMPOUND: Nc1cccc2c1CN(C1CCC(=O)NC1=O)C2=O (stereo not given)
UNIT: %
residual activity: 93
//
COMPOUND: CC(C)(C#N)c1ccc(N2C(=O)OCc3cnc4ccc(-c5cnc6ccccc6c5)cc4c32)cc1
UNIT: %
residual activity: 101
//
COMPOUND: Cc1cc(NC(=O)c2cccc(NC(=O)/C=C/CN(C)C)c2)ccc1Nc1nccc(-c2cccnc2)n1
UNIT: %
residual activity: 95
//
COMPOUND: O=C(N[C@@H](COc1ccc2[nH]c(=O)[nH]c2c1)c1ccccc1)c1cccn(Cc2ccc(F)c(F)c2)c1=O
UNIT: %
residual activity: 89
//
COMPOUND: O=C(Nc1nc2cc(C(F)(F)F)cc(NC3CC3)n2n1)c1cccnc1
UNIT: %
residual activity: 85

###

MEASURED_ON: PAK4 (human) (UniProt O96013)
Sequence (O96013 whole entry, looked up): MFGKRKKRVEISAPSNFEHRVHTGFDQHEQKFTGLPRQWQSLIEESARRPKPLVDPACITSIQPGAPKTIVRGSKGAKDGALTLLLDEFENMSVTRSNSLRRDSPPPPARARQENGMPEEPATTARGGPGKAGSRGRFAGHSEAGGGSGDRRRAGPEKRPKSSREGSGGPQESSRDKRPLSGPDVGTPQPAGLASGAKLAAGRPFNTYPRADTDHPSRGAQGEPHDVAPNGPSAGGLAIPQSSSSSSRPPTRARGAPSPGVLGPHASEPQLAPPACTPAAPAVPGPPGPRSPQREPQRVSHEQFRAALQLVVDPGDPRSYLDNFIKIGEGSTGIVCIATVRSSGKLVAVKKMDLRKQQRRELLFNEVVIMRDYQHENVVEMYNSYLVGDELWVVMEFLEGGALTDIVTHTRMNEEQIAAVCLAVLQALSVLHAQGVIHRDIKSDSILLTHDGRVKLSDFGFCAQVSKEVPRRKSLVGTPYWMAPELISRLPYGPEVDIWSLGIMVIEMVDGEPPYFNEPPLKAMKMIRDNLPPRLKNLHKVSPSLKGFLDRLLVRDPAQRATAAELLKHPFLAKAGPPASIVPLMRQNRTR
EXPERIMENT_SUMMARY: radiometric filter-binding kinase assay
EXPERIMENTAL_SETUP: compound 10.0 µM
# yes = residual activity below 80% (exclusive); no = residual activity at/above 80%

COMPOUND: COc1cc(C(=O)N2CCOCC2)c(F)cc1Nc1ncc(C(F)(F)F)c(NC2CC2)n1
GROUP_LABEL: yes

COMPOUND: O=C(NOCC(O)CO)c1ccc(F)c(F)c1Nc1ccc(I)cc1Cl (configuration not stated)
GROUP_LABEL: yes

COMPOUND: CC1=C(CO)C(=O)O[C@@H]([C@@H](C)[C@H]2CC[C@H]3[C@@H]4C[C@H]5O[C@]56[C@@H](O)C=CC(=O)[C@]6(C)C4CC[C@]23C)C1 (some centres not stated)
GROUP_LABEL: no

COMPOUND: COC(=O)/C=C/C(=O)OC
GROUP_LABEL: yes

COMPOUND: COc1cc2ncn(-c3cc(OCc4ccccc4S(C)(=O)=O)c(C#N)s3)c2cc1OC
GROUP_LABEL: yes

COMPOUND: O=c1c(O)c(-c2ccc(O)c(O)c2)oc2cc(O)c(O)c(O)c12
GROUP_LABEL: yes

COMPOUND: CCOC(=O)c1ccc(N2NC(=O)/C(=C/c3ccc([N+](=O)[O-])o3)C2=O)cc1
GROUP_LABEL: yes

COMPOUND: N#Cc1c(O)c2c(-c3ccc(-c4ccccc4O)cc3)csc2[nH]c1=O
GROUP_LABEL: yes

COMPOUND: c1ccc2c(-c3cnn4cc(-c5ccc(N6CCNCC6)cc5)cnc34)ccnc2c1
GROUP_LABEL: yes

COMPOUND: O=C(O)c1cc(N=Nc2ccc(S(=O)(=O)Nc3ccccn3)cc2)ccc1O
GROUP_LABEL: yes

COMPOUND: N#Cc1c(C2CCNCC2)cc(-c2c(O)cccc2OCC2CC2)nc1N
GROUP_LABEL: yes

COMPOUND: Cc1cccc(Nc2nn(C)c3ncnc(N)c23)c1
GROUP_LABEL: no

COMPOUND: Nc1cccc2c1CN(C1CCC(=O)NC1=O)C2=O (configuration not stated)
GROUP_LABEL: no

COMPOUND: Oc1ccc2ccccc2c1SSc1c(O)ccc2ccccc12
GROUP_LABEL: no

COMPOUND: FC(F)(F)c1ccc(-c2ccc(Oc3cncc4sc(-c5nn[nH]n5)cc34)cc2)cc1
GROUP_LABEL: no

COMPOUND: NC(=O)c1c(NC(=O)C2CC2)sc2c1CCCC2
GROUP_LABEL: yes

COMPOUND: NS(=O)(=O)OC[C@@H]1C[C@@H](n2ccc3c(N[C@H]4CCc5ccccc54)ncnc32)C[C@@H]1O
GROUP_LABEL: no

COMPOUND: NC(=O)c1cc2c(-c3cccc(-c4ccccc4)c3)cnc(N)c2s1
GROUP_LABEL: yes

COMPOUND: Cc1ccc(Sc2cnc(Nc3cccc(Br)n3)s2)cc1C(=O)N1CCN(C(=O)CN)CC1
GROUP_LABEL: yes

COMPOUND: NC1(c2ccc(-c3nc4ccn5c(=O)[nH]nc5c4cc3-c3ccccc3)cc2)CCC1
GROUP_LABEL: yes

COMPOUND: CCc1cncnc1N1CCN(Cc2nc3cc(C(F)(F)F)ccc3[nH]2)CC1
GROUP_LABEL: no

COMPOUND: O=C1Nc2nc(-c3c(O)cccc3OCC3CC3)cc(C3CCCNC3)c2CO1 (configuration not stated)
GROUP_LABEL: yes

COMPOUND: CN1C(=O)[C@@H](Cc2c[nH]c3ccccc23)NC1=S
GROUP_LABEL: no

COMPOUND: C[C@H]1CCCC(=O)CCC/C=C/c2cc(O)cc(O)c2C(=O)O1
GROUP_LABEL: no

COMPOUND: Cc1ccc2c(c1)C(=O)[C@@]1(O)CCN(c3ccccc3)C1=N2
GROUP_LABEL: no

COMPOUND: Cc1nc(-c2ccc(OCC(C)C)c(C#N)c2)sc1C(=O)O
GROUP_LABEL: yes

COMPOUND: O=C(NOC[C@H](O)CO)c1ccc(F)c(F)c1Nc1ccc(I)cc1Cl
GROUP_LABEL: yes

COMPOUND: Cc1cc(SCc2sc(-c3ccc(C(F)(F)F)cc3)nc2C)ccc1OCC(=O)O
GROUP_LABEL: yes

COMPOUND: CCNc1nc(Nc2cc(F)c(C(=O)N3CCOCC3)cc2OC)ncc1C(F)(F)F
GROUP_LABEL: yes

COMPOUND: CCCCCc1ccc(/C=C/[C@H](O)[C@@H](CO)NC)cc1
GROUP_LABEL: no

COMPOUND: CCCC(CCC)C(=O)O
GROUP_LABEL: no

COMPOUND: O=C(O)c1ccc(-c2c[nH]c3ncc(-c4ccccc4)cc23)cc1C1CCCC1
GROUP_LABEL: yes

COMPOUND: O=C1NC(=S)N[C@@H]1Cc1c[nH]c2ccccc12
GROUP_LABEL: no

COMPOUND: COc1ccc2c(c1)c1c3c(c4c5ccccc5n(C)c4c1n2CC(O)CN(C)C)C(=O)NC3=O (configuration not stated)
GROUP_LABEL: yes

COMPOUND: Cc1ccc(=O)n(-c2ccccc2)c1
GROUP_LABEL: no

COMPOUND: O=S(=O)(c1ccc(F)c2nonc12)N1CCN(c2ncc(C(F)(F)F)cc2Cl)CC1
GROUP_LABEL: no

COMPOUND: NC(=O)c1cc(-c2ccnc(NC3CCCCC3)c2)nc(N2CCNCC2)c1
GROUP_LABEL: yes

COMPOUND: NC(=O)c1ccc(-c2ccc(Oc3cncc4sc(-c5nn[nH]n5)cc34)cc2)cc1
GROUP_LABEL: yes

COMPOUND: CC(C)C[C@H](NC(=O)CNC(=O)c1cc(Cl)ccc1Cl)B1OC(=O)CC(CC(=O)O)(C(=O)O)O1 (some centres not stated)
GROUP_LABEL: yes

Where do the numbers come from? From the kinase profiling compilation of Christmann-Franck et al. (2016).
